test: in vivo; settings: mouse, iv

{"Compound": "Cn1c(=O)c2c(ncn2Cc2noc(CCN3CCCCC3)n2)n(C)c1=O", "LD50": "240 mg/kg"}
{"Compound": "Cn1c(=O)c2c(ncn2Cc2noc(CCN3CCOCC3)n2)n(C)c1=O", "LD50": "230 mg/kg"}
{"Compound": "CN1CCN(CCc2nc(CC(O)Cn3cnc4c3c(=O)n(C)c(=O)n4C)no2)CC1 (centres unmarked)", "LD50": "215 mg/kg"}
{"Compound": "CN1CCN(CCc2nc(Cn3cnc4c3c(=O)n(C)c(=O)n4C)no2)CC1", "LD50": "224 mg/kg"}
{"Compound": "CCN(CC)CCc1nc(Cn2cnc3c2c(=O)n(C)c(=O)n3C)no1 [Example 4]", "LD50": "215 mg/kg"}

* * *

LD50 listing for selected compounds.
assay: in vivo; settings: mouse, iv
Measure Name: LD50 (mg/kg)

{"Compound": "CCN(CC)CCc1nc(CCCn2cnc3c2c(=O)n(C)c(=O)n3C)no1 [Example 12]", "Measure Name": "LD50", "Experimental Result": 237}
{"Compound": "CC(C)NCCc1nc(CCn2cnc3c2c(=O)n(C)c(=O)n3C)no1 [(CH2)2 (CH2)2 NHi.Pr]", "Measure Name": "LD50", "Experimental Result": 200}
{"Compound": "COc1ccc2c3c1O[C@H]1[C@@H](O)C=C[C@H]4[C@@H](C2)N(C)CC[C@@]341 [Codeine, reference compound]", "Measure Name": "LD50", "Experimental Result": 54}
{"Compound": "CCCc1nc(Cn2cnc3c2c(=O)n(C)c(=O)n3C)no1 [Example 18]", "Measure Name": "LD50", "Experimental Result": 390}
{"Compound": "Cn1c(=O)c2c(ncn2CCCc2noc(CCN3CCOCC3)n2)n(C)c1=O", "Measure Name": "LD50", "Experimental Result": 220}
{"Compound": "c1ccc(C(Cc2noc(CCN3CCCCC3)n2)c2ccccc2)cc1 [Prenoxdiazine, reference compound]", "Measure Name": "LD50", "Experimental Result": 34}
{"Compound": "Cn1c(=O)c2c(ncn2CCc2noc(CCN3CCOCC3)n2)n(C)c1=O", "Measure Name": "LD50", "Experimental Result": 217}

* * *

test system: guinea pigs; assay: Cough relieving against 15% citric acid spray in guinea pigs, one hour after administration; type: in vivo; conditions: Cavia porcellus, im, 1 h, one hour after 50 mg/kg i.m., % related to the control, read-out: Cough inhibition Q %
Assign Condition met whenever inhibition in vivo at 50 mg/kg does not fall below 50%; assign Condition not met whenever it does.

{"Molecule": "CC(C)NCCc1nc(CCn2cnc3c2c(=O)n(C)c(=O)n3C)no1 [(CH2)2 (CH2)2 NHi.Pr]", "Group Label": "Condition met"}
{"Molecule": "Cc1nc(Cn2cnc3c2c(=O)n(C)c(=O)n3C)no1 [Example 1]", "Group Label": "Condition met"}
{"Molecule": "Cn1c(=O)c2c(ncn2Cc2noc(CCN3CCCCC3)n2)n(C)c1=O", "Group Label": "Condition met"}
{"Molecule": "c1ccc(C(Cc2noc(CCN3CCCCC3)n2)c2ccccc2)cc1 [Prenoxdiazine, reference compound]", "Group Label": "Condition not met"}
{"Molecule": "CCN(CC)CCc1nc(Cn2cnc3c2c(=O)n(C)c(=O)n3C)no1 [Example 4]", "Group Label": "Condition met"}
{"Molecule": "CN1CCN(CCc2nc(Cn3cnc4c3c(=O)n(C)c(=O)n4C)no2)CC1", "Group Label": "Condition met"}
{"Molecule": "Cn1c(=O)c2c(ncn2CCCc2noc(CCN3CCOCC3)n2)n(C)c1=O", "Group Label": "Condition not met"}
{"Molecule": "Cn1c(=O)c2c(ncn2Cc2noc(CCN3CCOCC3)n2)n(C)c1=O", "Group Label": "Condition met"}
